Items are presented alongside their recorded melting point.

molecule	melting point
Cc1c(C(=O)O)cnn1-c1nc(-c2cccc(Cl)c2)cs1 [Compound 4]	258 to 258.3 °C
Cc1c(C(=O)O)cnn1-c1nc(-c2ccc(Cl)c(Cl)c2)cs1 [Compound 3]	278 to 278.6 °C
Cc1c(C(=O)O)cnn1-c1nc(-c2ccccc2C(F)(F)F)cs1 [Compound 7]	215.5 to 216.5 °C
Cc1c(C(=O)O)cnn1-c1nc(-c2cccc(C(F)(F)F)c2)cs1 [Compound 1]	226.7 to 227.5 °C
O=C(O)c1cnn(-c2nc(-c3cccc(C(F)(F)F)c3)cs2)c1 [Compound 6]	229.1 to 229.6 °C

Please examine the following record next.
Exam item: Report measured melting point; entry is Cc1c(C(=O)O)cnn1-c1nc(-c2ccc3ccccc3c2)cs1 [Compound 9]
Marked response: 273.1 to 274.3 °C
